Target: cat T1R1/T1R3 receptor (Felis catus)
Experiment: cell-based
Type: cell-based
Excerpt: Methods: HEK293 cells that stably express T1R3 and inducibly express T1R1 were exposed to nucleotide derivatives alone or in combination with one or more amino acids and/or one or more nucleotides to activate the umami receptor. Activation of the T1R1/T1R3 receptor was detected by a change in intracellular calcium levels using a calcium sensitive fluorescent dye and/or a luminescent reporter system. Cells that express T1R3 but not T1R1 were used as a control. […]
Counter-ions that a name gives are not always drawn.
Max resp. (ΔF/F) values by entry
readoutKind: Max resp. (ΔF/F)

[
  {
    "molecule": "Nc1ncnc2c1ncn2C1OC(COP(=O)(O)OS(=O)(=O)O)C(O)C1O (stereo not shown) [Adenosine 5′-phosphosulfate sodium salt, Adenosine 5′-phosphosulfate]",
    "val": "0.8658 ΔF/F"
  },
  {
    "molecule": "Nc1ncnc2c1ncn2[C@@H]1O[C@H](COP(=O)(O)O)[C@@H](O)[C@H]1O [Adenosine 5′-monophosphate disodium salt, reference compound]",
    "val": "1.5470 ΔF/F"
  },
  {
    "molecule": "Nc1nc2c(ncn2[C@@H]2O[C@H](COP(=O)(O)OP(=O)(O)O)[C@@H](O)[C@H]2O)c(=O)[nH]1 [Guanosine 5′-diphosphate sodium salt, Guanosine 5′-diphosphate]",
    "val": "1.7550 ΔF/F"
  },
  {
    "molecule": "Nc1ncnc2c1ncn2[C@H]1C[C@H](O)[C@@H](COP(O)(O)=S)O1",
    "val": "1.0375 ΔF/F"
  },
  {
    "molecule": "O=P(O)(O)OC[C@H]1O[C@@H](n2cnc3c2ncn2ccnc32)C[C@@H]1O",
    "val": "0.87 ΔF/F"
  },
  {
    "molecule": "Nc1nc2c(nc(Br)n2[C@@H]2O[C@H](COP(=O)(O)O)[C@@H](O)[C@H]2O)c(=O)[nH]1 [8-Bromoguanosine-5′-O-monophosphate]",
    "val": "0.375 ΔF/F"
  },
  {
    "molecule": "O=P(O)(O)OC[C@H]1O[C@@H](n2cnc3c(NC4CCCC4)ncnc32)[C@H](O)[C@@H]1O",
    "val": "1.2317 ΔF/F"
  }
]

====

Target: T1R1/T1R3 receptor (Felis catus, UniProt E3UMS2)
Assay: Activation of T1R1/T1R3 receptor by transmembrane compounds and nucleotide derivatives, conducted as in Examples 1, 2 and 5 (Example 7)
Format: cell-based, cat
From the text: Methods: HEK293 cells that stably express T1R3 and inducibly express T1R1 were exposed to nucleotide derivatives alone to activate the umami receptor. Activation of the T1R1/T1R3 receptor was detected by a change in intracellular calcium levels using a calcium sensitive fluorescent dye. Cells that express T1R3 but not T1R1 were used as a control. A FLIPR® Tetra or a FlexStation® 3 was used for data capture. […]

[
  {
    "molecule": "Nc1ccccc1C(=O)NCCc1ccccc1 [2-amino-N-phenethylbenzamide]",
    "Max resp ΔF/F +Alanine (20 mM)": "0.6400 ΔF/F"
  },
  {
    "molecule": "O=C(NCCc1ccccc1)c1ccc2c(c1)OCO2",
    "Max resp ΔF/F +Alanine (20 mM)": "0.0775 ΔF/F"
  },
  {
    "molecule": "O=C(NCCc1ccccc1)c1cccnc1 [N-phenethylnicotinamide]",
    "Max resp ΔF/F +Alanine (20 mM)": "0.5725 ΔF/F"
  },
  {
    "molecule": "CC(C)CC(NC(=O)c1ccccc1)C(N)=O (racemic)",
    "Max resp ΔF/F +Alanine (20 mM)": "0.8600 ΔF/F"
  },
  {
    "molecule": "O=C(NCCc1ccccc1)c1ccccc1 [N-phenethylbenzamide]",
    "Max resp ΔF/F +Alanine (20 mM)": "0.1400 ΔF/F"
  },
  {
    "molecule": "CC(=O)Nc1ccc(C(=O)Nc2cc(-c3ccccc3)nn2CCO)cc1",
    "Max resp ΔF/F +Alanine (20 mM)": "0.0125 ΔF/F"
  },
  {
    "molecule": "O=C(NCCCCNC(=O)c1cccnc1)c1cccnc1 [N,N′-(butane-1,4-diyl)dinicotinamide]",
    "Max resp ΔF/F +Alanine (20 mM)": "0.0650 ΔF/F"
  },
  {
    "molecule": "CCCCc1nn(CC(=O)N2CCCC2)c(=O)n1Cc1ccccc1",
    "Max resp ΔF/F +Alanine (20 mM)": "0.8900 ΔF/F"
  },
  {
    "molecule": "O=C1CC(=O)N(Cc2ccccc2)C(=O)N1Cc1ccccc1",
    "Max resp ΔF/F +Alanine (20 mM)": "0.2925 ΔF/F"
  },
  {
    "molecule": "O=C(O)C1CCCCC1C(=O)Nc1cc(Cl)cc(Cl)c1 (stereo not shown)",
    "Max resp ΔF/F +Alanine (20 mM)": "1.1200 ΔF/F"
  }
]

====

+IMP (0.2 mM) Max resp % of Ala values by entry
Molecular target: T1R1/T1R3 receptor (Felis catus)
Assay: Activation of T1R1/T1R3 receptor by transmembrane compounds alone or with alanine, IMP, GMP, phenylalanine; HEK293 cells, calcium fluorescence (Example 5)
Type: cell-based, cat
Conditions: +IMP (0.2 mM)

[
  {
    "compound": "CCOC(=O)C(NC(=O)c1ccc2c(c1)OCO2)C(C)C (stereo not shown)",
    "+IMP (0.2 mM) Max resp % of Ala": "52.8 % of Ala"
  },
  {
    "compound": "O=C(NCCc1ccccc1)C(=O)NCc1cccnc1",
    "+IMP (0.2 mM) Max resp % of Ala": "61.9 % of Ala"
  },
  {
    "compound": "CCC(CC)NC(=O)/C=C/c1ccc(OC)cc1",
    "+IMP (0.2 mM) Max resp % of Ala": "171.7 % of Ala"
  },
  {
    "compound": "CSc1ccc(-c2nnn(Cc3ccccn3)n2)cc1",
    "+IMP (0.2 mM) Max resp % of Ala": "80.7 % of Ala"
  },
  {
    "compound": "COc1ccc(/C=C/C(=O)NC2CCCCC2C)cc1 (stereo not shown)",
    "+IMP (0.2 mM) Max resp % of Ala": "144.0 % of Ala"
  },
  {
    "compound": "CCCC(C)NC(=O)c1ccc(OC)c(C)c1 (stereo not shown)",
    "+IMP (0.2 mM) Max resp % of Ala": "128.9 % of Ala"
  },
  {
    "compound": "COc1ccc(C(=O)NC(C)c2ccccc2)cc1C (stereo not shown)",
    "+IMP (0.2 mM) Max resp % of Ala": "95.6 % of Ala"
  }
]

====

Biological target: T1R1/T1R3 receptor (Felis catus)
Assay: Activation of T1R1/T1R3 receptor by transmembrane compounds and nucleotide derivatives, conducted as in Examples 1, 2 and 5 (Example 7)
Type: cell-based, cat
Settings: alone in buffer; read-out: T1R1/T1R3 EC50
pEC50: −log10 of the molar value.
readoutKind: pEC50

[
  {
    "compound": "CC(C)CC(NC(=O)c1ccccc1)C(N)=O (racemic)",
    "val": "< 3.22"
  }
]

====

Molecular target: T1R1/T1R3 receptor (Felis catus, UniProt E3UMS2)
Test: Activation of T1R1/T1R3 receptor by transmembrane compounds alone or with alanine, IMP, GMP, phenylalanine; HEK293 cells, calcium fluorescence (Example 5)
Type: cell-based, cat
Settings: +Alanine (20 mM); threshold concentration
Thres +Alanine (20 mM) values by entry

[
  {
    "compound": "CCCC(C)NC(=O)/C=C/c1ccc(OC)c(OC)c1 (stereo not drawn)",
    "systemUnderTest": "T1R1/T1R3 receptor (Felis catus, UniProt E3UMS2)",
    "Thres +Alanine (20 mM)": 1
  },
  {
    "compound": "COc1ccc(C(=O)NC(C)c2ccccc2)cc1C (stereo not drawn)",
    "systemUnderTest": "T1R1/T1R3 receptor (Felis catus, UniProt E3UMS2)",
    "Thres +Alanine (20 mM)": 3
  },
  {
    "compound": "CCC(CC)NC(=O)c1ccc(C)c(C)c1 [3,4-dimethyl-N-(pentan-3-yl)benzamide]",
    "systemUnderTest": "T1R1/T1R3 receptor (Felis catus, UniProt E3UMS2)",
    "Thres +Alanine (20 mM)": 3
  },
  {
    "compound": "CCCC(C)NC(=O)c1ccc(OC)c(C)c1 (stereo not drawn)",
    "systemUnderTest": "T1R1/T1R3 receptor (Felis catus, UniProt E3UMS2)",
    "Thres +Alanine (20 mM)": 0.050
  },
  {
    "compound": "CCC(CC)NC(=O)/C=C/c1ccc(OC)cc1",
    "systemUnderTest": "T1R1/T1R3 receptor (Felis catus, UniProt E3UMS2)",
    "Thres +Alanine (20 mM)": 0.148
  },
  {
    "compound": "CCOC(=O)C(NC(=O)c1ccc2c(c1)OCO2)C(C)C (stereo not drawn)",
    "systemUnderTest": "T1R1/T1R3 receptor (Felis catus, UniProt E3UMS2)",
    "Thres +Alanine (20 mM)": 10
  },
  {
    "compound": "CCC(CC)NC(=O)c1ccc(Br)o1",
    "systemUnderTest": "T1R1/T1R3 receptor (Felis catus, UniProt E3UMS2)",
    "Thres +Alanine (20 mM)": 1
  },
  {
    "compound": "COC(=O)C(NC(=O)/C=C/c1cccs1)C(C)C (stereo not drawn)",
    "systemUnderTest": "T1R1/T1R3 receptor (Felis catus, UniProt E3UMS2)",
    "Thres +Alanine (20 mM)": 10
  },
  {
    "compound": "CCC(CC)NC(=O)c1ccc2c(c1)OCCO2",
    "systemUnderTest": "T1R1/T1R3 receptor (Felis catus, UniProt E3UMS2)",
    "Thres +Alanine (20 mM)": 0.3
  },
  {
    "compound": "O=C(Nc1ccccc1Br)N[C@@H]1c2ccccc2C[C@@H]1O (stereo in doubt)",
    "systemUnderTest": "T1R1/T1R3 receptor (Felis catus, UniProt E3UMS2)",
    "Thres +Alanine (20 mM)": 3
  },
  {
    "compound": "O=C(CN1C(=O)C(=O)N(Cc2ccccc2)C1=O)c1ccccc1",
    "systemUnderTest": "T1R1/T1R3 receptor (Felis catus, UniProt E3UMS2)",
    "Thres +Alanine (20 mM)": 1
  },
  {
    "compound": "O=C(NCCc1ccccc1)C(=O)NCc1cccnc1",
    "systemUnderTest": "T1R1/T1R3 receptor (Felis catus, UniProt E3UMS2)",
    "Thres +Alanine (20 mM)": 1
  },
  {
    "compound": "COc1ccc(/C=C/C(=O)NC2CCCCC2C)cc1 (stereo not drawn)",
    "systemUnderTest": "T1R1/T1R3 receptor (Felis catus, UniProt E3UMS2)",
    "Thres +Alanine (20 mM)": 3
  },
  {
    "compound": "CCC(CC)NC(=O)c1ccc(OC)c(OC)c1 [3,4-dimethoxy-N-(pentan-3-yl)benzamide]",
    "systemUnderTest": "T1R1/T1R3 receptor (Felis catus, UniProt E3UMS2)",
    "Thres +Alanine (20 mM)": 0.3
  },
  {
    "compound": "CC1CCCC(NC(=O)c2ccc3c(c2)OCO3)C1C (stereo not drawn)",
    "systemUnderTest": "T1R1/T1R3 receptor (Felis catus, UniProt E3UMS2)",
    "Thres +Alanine (20 mM)": 3
  }
]
